- Assay: AUC (0 to infinity) in Balb/c mouse at 3 mg/kg, iv
- Type: ADME, organism-based
- Set-up: dose 3 mg/kg, route intravenous, time infinity
- Details: in vivo
Measure Name: AUC(0-inf) (ng·h/mL)

CC[C@]1(C)C[C@@H](OC(=O)CSC(C)(C)CNC(=O)[C@H](N)CC(C)C)[C@]2(C)[C@H](C)CC[C@]3(CC[C@@H](O)[C@H]32)[C@@H](C)[C@@H]1O :: 1050

----------
In this section, each of the molecules is paired with its reported pIC50.
- Test system: Erythrocyte
- Assay: Hemolytic activity in sheep erythrocytes after 2 hrs
- Format: ADME, cell-based
- Details: Ovis aries
pIC50: −log10 of the molar value.
Measure Name: pIC50

CC[C@]1(C)C[C@@H](OC(=O)CSC(C)(C)CNC(=O)[C@H](N)CC(C)C)[C@]2(C)[C@H](C)CC[C@]3(CC[C@@H](O)[C@H]32)[C@@H](C)[C@@H]1O :: < 3.70
CC[C@]1(C)C[C@@H](OC(=O)CSC(C)(C)CNC(=O)[C@H](N)CC(C)C)[C@]2(C)[C@H](C)CC[C@]3(CCC(=O)[C@H]32)[C@@H](C)[C@@H]1O :: < 3.70
CCCCCCCCCCCCC/C=C/C(=O)N[C@H]1[C@H](O[C@H]2O[C@H](CO)[C@@H](O)[C@H](O)[C@H]2NC(C)=O)O[C@H](CC(O)[C@H]2O[C@@H](n3ccc(=O)[nH]c3=O)[C@H](O)[C@@H]2O)[C@H](O)[C@@H]1O (some centres undefined) :: 4.82
C=C[C@]1(C)C[C@@H](OC(=O)CSC(C)(C)CNC(=O)[C@H](N)CC(C)C)[C@]2(C)[C@H](C)CC[C@]3(CCC(=O)[C@H]32)[C@@H](C)[C@@H]1O :: < 3.70
